Below, each entry is listed with its recorded inhibition.
Target: Prostaglandin G/H synthase 1 (Ovis aries) (UniProt P05979)
Sequence (P05979 whole entry): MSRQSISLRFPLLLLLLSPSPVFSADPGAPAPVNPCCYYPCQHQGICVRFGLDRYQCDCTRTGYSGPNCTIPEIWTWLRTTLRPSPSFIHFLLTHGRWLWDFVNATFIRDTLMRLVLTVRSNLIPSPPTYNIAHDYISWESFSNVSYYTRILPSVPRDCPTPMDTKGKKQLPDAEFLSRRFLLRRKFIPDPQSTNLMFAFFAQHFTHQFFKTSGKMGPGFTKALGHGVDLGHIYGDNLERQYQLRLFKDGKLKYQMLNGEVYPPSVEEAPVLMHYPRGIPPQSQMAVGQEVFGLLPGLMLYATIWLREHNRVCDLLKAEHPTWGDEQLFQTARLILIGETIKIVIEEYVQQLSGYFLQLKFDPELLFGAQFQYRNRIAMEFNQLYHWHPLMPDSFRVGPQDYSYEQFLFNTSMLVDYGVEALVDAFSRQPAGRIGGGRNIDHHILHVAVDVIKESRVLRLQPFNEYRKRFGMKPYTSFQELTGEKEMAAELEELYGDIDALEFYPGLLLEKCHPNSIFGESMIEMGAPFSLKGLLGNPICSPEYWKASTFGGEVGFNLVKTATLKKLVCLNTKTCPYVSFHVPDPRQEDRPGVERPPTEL
Test: Inhibition of ovine COX1 using arachidonic acid as substrate at 1 uM preincubated for 5 mins measured after 2 mins by colorimetric analysis
Remember to follow the number with its unit.

molecular_string=NS(=O)(=O)c1ccc(N2C(=O)C(Cl)=C(Nc3ccccc3F)C2=O)cc1 reported_value=0.89%

[Q] May I ask what inhibition has been recorded for Nc1ccccc1NC1=C(Cl)C(=O)N(c2ccc(S(N)(=O)=O)cc2)C1=O ?
[A] 1.78%

[Q] Record: NS(=O)(=O)c1ccc(N2C(=O)C(Cl)=C(Nc3ccc(Cl)cc3)C2=O)cc1
[A] 9.37%

---

Test system: Rattus norvegicus
Assay: Antiinflammatory activity in Wistar albino rat assessed as inhibition of carrageenan-induced hind paw edema at 20 mg/kg, po after 3 hrs by plethysmometer
Type: functional
measure: inhibition in vivo at 20 mg/kg (%)
Expressed in %, but write only the number.

Below, each entry is followed by its recorded inhibition in vivo at 20 mg/kg result.
molecular_string=NS(=O)(=O)c1ccc(N2C(=O)C(Cl)=C(Nc3ccccc3)C2=O)cc1 target_or_system="Rattus norvegicus" unit_spec=% reported_value=56.8
molecular_string=NS(=O)(=O)c1ccc(N2C(=O)C(Cl)=C(Nc3cccc(Cl)c3)C2=O)cc1 target_or_system="Rattus norvegicus" unit_spec=% reported_value=70.4
molecular_string=COc1cccc(NC2=C(Cl)C(=O)N(c3ccc(S(N)(=O)=O)cc3)C2=O)c1 target_or_system="Rattus norvegicus" unit_spec=% reported_value=71.5

[Q] State the recorded inhibition in vivo at 20 mg/kg for this entry: Cc1ccc(-c2cc(C(F)(F)F)nn2-c2ccc(S(N)(=O)=O)cc2)cc1
[A] 100

[Q] Now try NS(=O)(=O)c1ccc(N2C(=O)C(Cl)=C(Nc3cccc(F)c3)C2=O)cc1 .
[A] 81

[Q] Similarly, NS(=O)(=O)c1ccc(N2C(=O)C(Cl)=C(Nc3ccccc3F)C2=O)cc1 ?
[A] 71

---

Biological target: Prostaglandin G/H synthase 2 (Homo sapiens) (UniProt P35354)
Sequence (whole entry): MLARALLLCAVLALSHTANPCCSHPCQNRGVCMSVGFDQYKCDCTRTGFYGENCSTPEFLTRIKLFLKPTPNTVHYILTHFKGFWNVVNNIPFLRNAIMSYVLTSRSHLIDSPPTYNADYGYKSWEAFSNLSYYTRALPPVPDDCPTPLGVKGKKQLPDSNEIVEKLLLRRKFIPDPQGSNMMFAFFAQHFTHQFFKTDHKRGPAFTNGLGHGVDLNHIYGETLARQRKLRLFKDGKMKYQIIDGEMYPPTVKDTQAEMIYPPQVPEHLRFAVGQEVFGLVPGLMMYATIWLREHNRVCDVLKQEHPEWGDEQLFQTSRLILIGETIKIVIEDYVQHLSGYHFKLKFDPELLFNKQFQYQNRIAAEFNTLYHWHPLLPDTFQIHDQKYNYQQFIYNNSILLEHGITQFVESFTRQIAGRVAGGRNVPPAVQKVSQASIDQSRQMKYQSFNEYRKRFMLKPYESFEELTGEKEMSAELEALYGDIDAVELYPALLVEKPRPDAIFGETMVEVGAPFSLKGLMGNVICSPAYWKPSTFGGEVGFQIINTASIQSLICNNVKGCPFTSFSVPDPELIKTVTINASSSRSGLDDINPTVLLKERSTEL
Conditions: at 1 µM
Description: Inhibition of human recombinant COX2 using arachidonic acid as substrate at 1 uM preincubated for 5 mins measured after 2 mins by colorimetric analysis
measure: inhibition (%)
Value expressed in %; do not type the unit.

Known inhibition results, listed for orientation:
molecular_string=Nc1ccccc1NC1=C(Cl)C(=O)N(c2ccc(S(N)(=O)=O)cc2)C1=O reported_value=23
molecular_string=NS(=O)(=O)c1ccc(N2C(=O)C(Cl)=C(Nc3cccc(F)c3)C2=O)cc1 reported_value=49.3
molecular_string=NS(=O)(=O)c1ccc(N2C(=O)C(Cl)=C(Cl)C2=O)cc1 reported_value=7.37
molecular_string=Cc1ccccc1NC1=C(Cl)C(=O)N(c2ccc(S(N)(=O)=O)cc2)C1=O reported_value=10.1
molecular_string=NS(=O)(=O)c1ccc(N2C(=O)C(Cl)=C(Nc3ccc(Cl)c(Cl)c3)C2=O)cc1 reported_value=30.4
molecular_string=Cc1cc(C)cc(NC2=C(Cl)C(=O)N(c3ccc(S(N)(=O)=O)cc3)C2=O)c1 reported_value=6.91

// next item, inhibition requested
[Q] For the compound COc1ccccc1NC1=C(Cl)C(=O)N(c2ccc(S(N)(=O)=O)cc2)C1=O , what inhibition is on record?
[A] 15.7

---

Experiment: Selectivity index, ratio of inhibition of human recombinant COX2 to inhibition of ovine COX1
measure: Selectivity Index
In your answer, state the number alone without any accompanying words.

[Q] Reported Selectivity Index for NS(=O)(=O)c1ccc(N2C(=O)C(Cl)=C(Nc3ccc([N+](=O)[O-])cc3)C2=O)cc1 : what is it?
[A] 19.1

---

The entries below come with measured inhibition values attached.
Target: Prostaglandin G/H synthase 1 (Ovis aries) (UniProt P05979)
Assay: Inhibition of ovine COX1 using arachidonic acid as substrate at 1 uM preincubated for 5 mins measured after 2 mins by colorimetric analysis
I only need the number, in %, no unit after it.

molecular_string=Cc1ccc(NC2=C(Cl)C(=O)N(c3ccc(S(N)(=O)=O)cc3)C2=O)c(C)c1 measure=inhibition reported_value=5.35
molecular_string=NS(=O)(=O)c1ccc(N2C(=O)C(Cl)=C(Nc3ccc([N+](=O)[O-])cc3)C2=O)cc1 measure=inhibition reported_value=0.89
molecular_string=NS(=O)(=O)c1ccc(N2C(=O)C(Cl)=C(Nc3ccc(F)cc3)C2=O)cc1 measure=inhibition reported_value=1.33
molecular_string=NS(=O)(=O)c1ccc(N2C(=O)C(Cl)=C(Nc3ccc(Cl)c(Cl)c3)C2=O)cc1 measure=inhibition reported_value=8.03
molecular_string=COc1cccc(NC2=C(Cl)C(=O)N(c3ccc(S(N)(=O)=O)cc3)C2=O)c1 measure=inhibition reported_value=0.89

Alright, here's another compound for you.
[Q] Can you look up inhibition on Prostaglandin G/H synthase 1 (Ovis aries) (UniProt P05979) for NS(=O)(=O)c1ccc(N2C(=O)C(Cl)=C(Cl)C2=O)cc1 ?
[A] 12.1

---

Property: inhibition; scope: individual molecules
Molecular target: Prostaglandin G/H synthase 2 (Homo sapiens) (UniProt P35354);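 also: recombinant enzyme with arachidonic acid substrate, compound preincubated 5 min, colorimetric read-out taken 2 min after reaction start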
Details: at 1 µM
Field format: number, assumed %, no unit text.

Recorded results for 5 molecules are shown here.
molecular_string=NS(=O)(=O)c1ccc(N2C(=O)C(Cl)=C(Nc3cccc(Cl)c3Cl)C2=O)cc1 target_or_system="Prostaglandin G/H synthase 2 (Homo sapiens) (UniProt P35354)" unit_spec=% reported_value=27.2
molecular_string=NS(=O)(=O)c1ccc(N2C(=O)C(Cl)=C(Nc3ccc(C(F)(F)F)cc3)C2=O)cc1 target_or_system="Prostaglandin G/H synthase 2 (Homo sapiens) (UniProt P35354)" unit_spec=% reported_value=27.2
molecular_string=NS(=O)(=O)c1ccc(N2C(=O)C(Cl)=C(Nc3cccc(Cl)c3)C2=O)cc1 target_or_system="Prostaglandin G/H synthase 2 (Homo sapiens) (UniProt P35354)" unit_spec=% reported_value=42.4
molecular_string=NS(=O)(=O)c1ccc(N2C(=O)C(Cl)=C(N3CCCCC3)C2=O)cc1 target_or_system="Prostaglandin G/H synthase 2 (Homo sapiens) (UniProt P35354)" unit_spec=% reported_value=6.45
molecular_string=NS(=O)(=O)c1ccc(N2C(=O)C(Cl)=C(Nc3ccccc3F)C2=O)cc1 target_or_system="Prostaglandin G/H synthase 2 (Homo sapiens) (UniProt P35354)" unit_spec=% reported_value=39.6

[Q] Which measured inhibition value corresponds to NS(=O)(=O)c1ccc(N2C(=O)C(Cl)=C(Nc3ccc(Cl)cc3)C2=O)cc1 ?
[A] 24.4

[Q] Moving on to the next molecule: COc1ccc(NC2=C(Cl)C(=O)N(c3ccc(S(N)(=O)=O)cc3)C2=O)cc1
[A] 10.6

[Q] Moving on to the next molecule: Cc1ccc(NC2=C(Cl)C(=O)N(c3ccc(S(N)(=O)=O)cc3)C2=O)c(C)c1
[A] 13.8

[Q] Try this molecule too: COc1cccc(NC2=C(Cl)C(=O)N(c3ccc(S(N)(=O)=O)cc3)C2=O)c1
[A] 44.2

[Q] Try this molecule next: NS(=O)(=O)c1ccc(N2C(=O)C(Cl)=C(Nc3ccc(F)cc3)C2=O)cc1
[A] 27.6

[Q] NS(=O)(=O)c1ccc(N2C(=O)C(Cl)=C(Nc3ccc([N+](=O)[O-])cc3)C2=O)cc1 ?
[A] 17.1

[Q] Now the same for NS(=O)(=O)c1ccc(N2C(=O)C(Cl)=C(Nc3ccccc3)C2=O)cc1
[A] 39.6

---

Test: Selectivity index, ratio of inhibition of human recombinant COX2 to inhibition of ovine COX1
measure: Selectivity Index
Could you keep your reply to the number by itself?

Check out these entries, answers already filled in.
molecular_string=NS(=O)(=O)c1ccc(N2C(=O)C(Cl)=C(N3CCCCC3)C2=O)cc1 reported_value=14.7
molecular_string=Nc1ccccc1NC1=C(Cl)C(=O)N(c2ccc(S(N)(=O)=O)cc2)C1=O reported_value=12.9
molecular_string=NS(=O)(=O)c1ccc(N2C(=O)C(Cl)=C(Nc3ccccc3F)C2=O)cc1 reported_value=44.5
molecular_string=NS(=O)(=O)c1ccc(N2C(=O)C(Cl)=C(Nc3ccc(F)cc3)C2=O)cc1 reported_value=20.8

[Q] For the compound NS(=O)(=O)c1ccc(N2C(=O)C(Cl)=C(Nc3cccc(F)c3)C2=O)cc1 , what Selectivity Index is on record?
[A] 55.4

[Q] Item: COc1ccccc1NC1=C(Cl)C(=O)N(c2ccc(S(N)(=O)=O)cc2)C1=O
[A] 2.19

[Q] What about this compound? NS(=O)(=O)c1ccc(N2C(=O)C(Cl)=C(Nc3cccc(Cl)c3)C2=O)cc1
[A] 47.6

[Q] Thanks! And Cc1ccccc1NC1=C(Cl)C(=O)N(c2ccc(S(N)(=O)=O)cc2)C1=O ?
[A] 1.62

[Q] Next compound: Cc1cc(C)cc(NC2=C(Cl)C(=O)N(c3ccc(S(N)(=O)=O)cc3)C2=O)c1
[A] 15.7

[Q] Try this compound too: Cc1ccc(NC2=C(Cl)C(=O)N(c3ccc(S(N)(=O)=O)cc3)C2=O)c(C)c1
[A] 2.57
